Here the recorded shrunken log2 fold change is given for each entry.
System: Escherichia coli TOP10;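 note: peptides expressed intracellularly from a pBAD plasmid library in pooled LB shake-flask culture, induced with 0.3% L-arabinose, DNA abundance read by NGS, three biological replicates, DESeq2 with apeglm shrinkage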
assay.protocol: shrunken log2 fold change of peptide-encoding DNA abundance (4.5 h post-induction vs induction); higher = less antimicrobial activity (less host growth inhibition)
test.settings: time post-induction: 4.5 h; library: site-saturation at positions 5, 18, 19, 20
quantity.measured: shrunken log2 fold change

INSERT INTO measurements (chain_sequence, quantity_measured, recorded_value) VALUES
  ('RRIRVRPPRLPRPRPRPNKTPRP', 'shrunken log2 fold change', 0.172),
  ('RRIRSRPPRLPRPRPRPFRWPRP', 'shrunken log2 fold change', 0.119),
  ('RRIRLRPPRLPRPRPRPKLCPRP', 'shrunken log2 fold change', 0.115),
  ('RRIRKRPPRLPRPRPRPKLDPRP', 'shrunken log2 fold change', 0.707),
  ('RRIRKRPPRLPRPRPRPKHHPRP', 'shrunken log2 fold change', 0.122),
  ('RRIRQRPPRLPRPRPRPIDHPRP', 'shrunken log2 fold change', -0.0445),
  ('RRIRCRPPRLPRPRPRPASYPRP', 'shrunken log2 fold change', -0.295),
  ('RRIRGRPPRLPRPRPRPLCIPRP', 'shrunken log2 fold change', 0.366),
  ('RRIRRRPPRLPRPRPRPQGCPRP', 'shrunken log2 fold change', -0.189),
  ('RRIRRRPPRLPRPRPRPEKFPRP', 'shrunken log2 fold change', 0.171),
  ('RRIRNRPPRLPRPRPRPTVAPRP', 'shrunken log2 fold change', 0.351),
  ('RRIRSRPPRLPRPRPRPQSMPRP', 'shrunken log2 fold change', -0.384),
  ('RRIRTRPPRLPRPRPRPSVKPRP', 'shrunken log2 fold change', -0.177),
  ('RRIRVRPPRLPRPRPRPIFRPRP', 'shrunken log2 fold change', 0.0423),
  ('RRIRHRPPRLPRPRPRPQKPPRP', 'shrunken log2 fold change', -0.0624),
  ('RRIRTRPPRLPRPRPRPTQMPRP', 'shrunken log2 fold change', 0.451),
  ('RRIRWRPPRLPRPRPRPREMPRP', 'shrunken log2 fold change', 0.262),
  ('RRIRNRPPRLPRPRPRPEYQPRP', 'shrunken log2 fold change', 0.00318),
  ('RRIRQRPPRLPRPRPRPIMHPRP', 'shrunken log2 fold change', -0.172),
  ('RRIRLRPPRLPRPRPRPPWVPRP', 'shrunken log2 fold change', 0.344),
  ('RRIRSRPPRLPRPRPRPWTTPRP', 'shrunken log2 fold change', 0.00749),
  ('RRIRLRPPRLPRPRPRPGKKPRP', 'shrunken log2 fold change', 0.0971),
  ('RRIRNRPPRLPRPRPRPGWDPRP', 'shrunken log2 fold change', -0.00506),
  ('RRIRERPPRLPRPRPRPWCQPRP', 'shrunken log2 fold change', -0.0135),
  ('RRIRRRPPRLPRPRPRPKFPPRP', 'shrunken log2 fold change', 0.361),
  ('RRIRNRPPRLPRPRPRPIGSPRP', 'shrunken log2 fold change', -0.00277),
  ('RRIRKRPPRLPRPRPRPLRIPRP', 'shrunken log2 fold change', 0.648),
  ('RRIRNRPPRLPRPRPRPHQGPRP', 'shrunken log2 fold change', -0.0861),
  ('RRIRCRPPRLPRPRPRPSMCPRP', 'shrunken log2 fold change', -0.14),
  ('RRIRVRPPRLPRPRPRPQCHPRP', 'shrunken log2 fold change', -0.0451),
  ('RRIRQRPPRLPRPRPRPEPLPRP', 'shrunken log2 fold change', 0.287),
  ('RRIRMRPPRLPRPRPRPIPAPRP', 'shrunken log2 fold change', 0.788),
  ('RRIRMRPPRLPRPRPRPSSGPRP', 'shrunken log2 fold change', 0.0493),
  ('RRIRPRPPRLPRPRPRPSQCPRP', 'shrunken log2 fold change', -0.985),
  ('RRIRNRPPRLPRPRPRPCAEPRP', 'shrunken log2 fold change', -0.169),
  ('RRIRFRPPRLPRPRPRPGIEPRP', 'shrunken log2 fold change', -0.0616),
  ('RRIRCRPPRLPRPRPRPKMIPRP', 'shrunken log2 fold change', -0.727),
  ('RRIRWRPPRLPRPRPRPPMQPRP', 'shrunken log2 fold change', 0.322),
  ('RRIRYRPPRLPRPRPRPQRSPRP', 'shrunken log2 fold change', -0.129),
  ('RRIRFRPPRLPRPRPRPIPYPRP', 'shrunken log2 fold change', -0.102),
  ('RRIRCRPPRLPRPRPRPCSVPRP', 'shrunken log2 fold change', -0.177),
  ('RRIRPRPPRLPRPRPRPLFHPRP', 'shrunken log2 fold change', -0.131),
  ('RRIRFRPPRLPRPRPRPCYKPRP', 'shrunken log2 fold change', -0.228),
  ('RRIRDRPPRLPRPRPRPLNWPRP', 'shrunken log2 fold change', 0.0327),
  ('RRIRWRPPRLPRPRPRPVETPRP', 'shrunken log2 fold change', -0.0256),
  ('RRIRNRPPRLPRPRPRPNDGPRP', 'shrunken log2 fold change', -0.00674),
  ('RRIRARPPRLPRPRPRPFRGPRP', 'shrunken log2 fold change', -0.0013),
  ('RRIRYRPPRLPRPRPRPWCDPRP', 'shrunken log2 fold change', -0.733),
  ('RRIRERPPRLPRPRPRPKVTPRP', 'shrunken log2 fold change', -0.114),
  ('RRIRIRPPRLPRPRPRPIFFPRP', 'shrunken log2 fold change', -0.123),
  ('RRIRGRPPRLPRPRPRPGIQPRP', 'shrunken log2 fold change', 0.591),
  ('RRIRQRPPRLPRPRPRPMKSPRP', 'shrunken log2 fold change', 0.0232),
  ('RRIRDRPPRLPRPRPRPCKTPRP', 'shrunken log2 fold change', -0.0377),
  ('RRIRIRPPRLPRPRPRPHTIPRP', 'shrunken log2 fold change', -0.572),
  ('RRIRHRPPRLPRPRPRPNPTPRP', 'shrunken log2 fold change', -0.193);
